Parameter: pest or weed control at 400 ppm. Scope: all listed entries.
tested on: Erysiphe graminis tritici (powdery mildew); experiment: Test 1 greenhouse foliar spray screen, powdery mildew on wheat; type: in vivo; conditions: Blumeria graminis, foliar, Test 1, foliar spray on wheat; disease control rating at 400 ppm / 100 ppm; read-out: POWD MDEW

Give pest or weed control at 400 ppm for the following molecule: "Clc1ccc(CCOc2ccnc3c(Br)cccc23)cc1" 0 to 19%

Please list pest or weed control at 400 ppm recorded for the molecule "Cc1cc(OCCC2CCCCC2)c2cc(F)ccc2n1" 0 to 19%

Name the recorded pest or weed control at 400 ppm of the molecule listed here: "FC(F)(F)c1ccc2c(OCCc3ccccc3)ccnc2c1" 90 to 100%

Tell me pest or weed control at 400 ppm reported for "Clc1cccc2c(CCCc3ccccc3)ccnc12" 20 to 89%

Query pest or weed control at 400 ppm for "Fc1ccc2c(OCCc3ccc(-c4ccccc4)cc3)ccnc2c1" 20 to 89%

Look up and report measured pest or weed control at 400 ppm for this entry: "OCCc1ccc(CCOc2ccnc3c(F)cccc23)cc1" 0 to 19%

Name the recorded pest or weed control at 400 ppm of the molecule listed here: "CC(C)(C)c1ccc(CCOc2ccnc3cc(F)ccc23)cc1" 0 to 19%

Consider the molecule "CC(C)(C)c1ccc(CCCNc2ccnc3c(F)cccc23)cc1" . State its measured pest or weed control at 400 ppm. 0 to 19%

Using the record for CC(Cc1ccccc1)Oc1ccnc2ccccc12 (stereo not drawn) , state its measured pest or weed control at 400 ppm. 20 to 89%

Attribution: patent EP0326331B1
